experiment: Cytotoxicity against human PC-3MIE8 cells after 72 hrs; type: cell-based; conditions: PC-3MIE8, 72 h
pIC50: −log10 of the molar value.
Readout label: pIC50

Compound	pIC50
O=C(O)C(Cc1ccc(O)cc1)NCc1ccc2ccc3cccnc3c2n1 (configuration not stated)	< 4.00

For O=C(O)C(Cc1ccccc1)NCc1ccc2ccc3cccnc3c2n1 (configuration not stated) , write its pIC50. < 4.00
